Molecular target: human recombinant kinase full-length wildtype AKT1 (Homo sapiens)
Construct: Purified human recombinant kinase full-length wildtype AKT1 was expressed in insect cells
Assay: AKT1 kinase assay (wildtype, TR-FRET, Lance)
Details: 0.6 nM wildtype AKT1, 50 nM Ulight-CREBtide, either 50 μM ATP or 2 mM ATP, 60 min at RT
pIC50: −log10 of the molar value.
Below is a list of entries, each paired with its recorded pIC50 value.

CCN(Cc1ccc(-n2c(-c3cccnc3N)nc3ccc(-c4ccccc4)nc32)cc1)[C@H]1CC[C@H](C(=O)O)CC1: > 4.70
C[C@]1(C(=O)O)CC[C@@H](CN2CC(c3ccc(-n4c(-c5cccnc5N)nc5ccc(-c6ccccc6)nc54)cc3)C2)CC1: > 4.70

Query :: What value of pIC50 has been reported for the following compound? Nc1ncccc1-c1nc2ccc(-c3ccc(F)cc3)nc2n1-c1ccc(C2CN(C[C@H]3CC[C@H](C(=O)O)CC3)C2)cc1
Result :: > 4.70

* * *

Target: human recombinant kinase full-length AKT1 E17K (Homo sapiens, UniProt P31749, E17K)
Construct: Purified human recombinant kinase full-length AKT1 E17K was expressed in insect cells; made in house; host or cells: insect cells
Sequence (P31749 whole entry E17K): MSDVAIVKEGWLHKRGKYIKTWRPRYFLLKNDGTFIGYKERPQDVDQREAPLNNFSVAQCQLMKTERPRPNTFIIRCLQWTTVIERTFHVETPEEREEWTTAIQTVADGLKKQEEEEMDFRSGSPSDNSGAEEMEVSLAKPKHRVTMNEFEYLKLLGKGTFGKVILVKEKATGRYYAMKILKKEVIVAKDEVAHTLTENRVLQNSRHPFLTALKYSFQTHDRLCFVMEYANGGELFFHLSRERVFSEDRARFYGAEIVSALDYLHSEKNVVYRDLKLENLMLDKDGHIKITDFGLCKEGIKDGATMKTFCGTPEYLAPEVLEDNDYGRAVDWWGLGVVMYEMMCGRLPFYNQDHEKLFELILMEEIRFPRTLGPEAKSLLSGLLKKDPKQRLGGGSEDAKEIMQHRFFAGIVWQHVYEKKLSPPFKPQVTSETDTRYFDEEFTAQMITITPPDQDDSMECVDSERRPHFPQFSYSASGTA
Assay: AKT1 E17K kinase assay (TR-FRET, Lance)
Format: biochemical
Conditions: 0.6 nM AKT1 E17K, 50 nM Ulight-CREBtide, either 50 μM ATP or 2 mM ATP, 60 min at RT
Below is a list of entries, each paired with its recorded IC50 value.

Cc1nc(NC(=O)[C@H]2CC[C@H](C(=O)O)CC2)ccc1-n1c(-c2cccnc2N)nc2ccc(-c3c(F)cccc3F)nc21: 500 to 2000 nM

Query :: What value of IC50 has been reported for the following compound? Nc1ncccc1-c1nc2ccc(-c3ccccc3)nc2n1-c1ccc(NCC2CCC(C(=O)O)CC2)nc1 (stereo not shown)
Result :: < 500 nM

Query :: What value of IC50 has been reported for the following compound? Nc1ncccc1-c1nc2ccc(-c3ccccc3)nc2n1-c1ccc(NCC2CC3(C2)CC(C(=O)O)C3)nc1 (stereo not shown)
Result :: < 500 nM

Query :: What value of IC50 has been reported for the following compound? Nc1ncccc1-c1nc2ccc(-c3ccccc3F)nc2n1-c1ccc(C2CN(C[C@H]3CC[C@H](C(=O)O)CC3)C2)cc1
Result :: < 500 nM

Query :: What value of IC50 has been reported for the following compound? Cc1nc(NC(=O)[C@H]2CC[C@H](C(=O)O)CC2)ccc1-n1c(-c2cccnc2N)nc2ccc(-c3ccccc3)nc21
Result :: < 500 nM

Query :: What value of IC50 has been reported for the following compound? Cc1cc(C2(C)CN(C[C@H]3CC[C@H](C(=O)O)CC3)C2)ccc1-n1c(-c2cccnc2N)nc2ccc(-c3ccccc3)nc21
Result :: 500 to 2000 nM

* * *

Target: human recombinant kinase full-length wildtype AKT1 (Homo sapiens)
Construct: Purified human recombinant kinase full-length wildtype AKT1 was expressed in insect cells
Test: AKT1 kinase assay (wildtype, TR-FRET, Lance)
Details: 0.6 nM wildtype AKT1, 50 nM Ulight-CREBtide, either 50 μM ATP or 2 mM ATP, 60 min at RT
Below is a list of entries, each paired with its recorded IC50 value.

Sample answers from the record:
Nc1ncccc1-c1nc2ccc(-c3ccccc3)cc2n1-c1ccc(NC(=O)C2CCCC(C(=O)O)C2)nc1 (stereo not drawn): < 20 µM
CC(c1ccc(-n2c(-c3cccnc3N)nc3ccc(-c4ccccc4)nc32)cc1)N(C)[C@H]1CC[C@@H](C(=O)O)CC1 (stereo partly drawn): < 20 µM
CC1(C)C[C@@H](C(=O)O)CC[C@@H]1CN1CC(c2ccc(-n3c(-c4cccnc4N)nc4ccc(-c5ccccc5)nc43)cc2)C1 (stereo in doubt): < 20 µM
CC(C)N(Cc1ccc(-n2c(-c3cccnc3N)nc3ccc(-c4ccccc4)nc32)cc1)[C@H]1CC[C@H](C(=O)O)CC1: < 20 µM
Nc1ncccc1-c1nc2ccc(-c3ccccc3)nc2n1-c1ccc(NCC2CCC(C(=O)O)CC2)nc1 (stereo not drawn): < 20 µM

Next compound, please.
Query :: Enter reported IC50 observed with human recombinant kinase full-length wildtype AKT1 (Homo sapiens) for Nc1ncccc1-c1nc2ccc(-c3ccccc3)nc2n1-c1ccc(NC(=O)C23CC(C(=O)O)(C2)C3)nc1
Result :: 20 to 80 µM

* * *

Below is a list of entries, each paired with its recorded pIC50 value.
Target: human recombinant kinase full-length AKT1 E17K (Homo sapiens, UniProt P31749, E17K)
Construct: Purified human recombinant kinase full-length AKT1 E17K was expressed in insect cells
Experiment: AKT1 E17K kinase assay (TR-FRET, Lance)
Details: 0.6 nM AKT1 E17K, 50 nM Ulight-CREBtide, either 50 μM ATP or 2 mM ATP, 60 min at RT
pIC50: −log10 of the molar value.

Cc1cc(C2CN(C[C@H]3CC[C@H](C(=O)O)CC3)C2)ccc1-n1c(-c2cccnc2N)nc2ccc(-c3ccccc3)nc21: > 6.30
CC(C)Oc1ccc2nc(-c3cccnc3N)n(-c3ccc(NC(=O)[C@H]4CC[C@H](C(=O)O)CC4)nc3)c2c1: ≤ 5.70
CC(C)[C@@H]([C@H]1CC[C@H](C(=O)O)CC1)N1CC(c2ccc(-n3c(-c4cccnc4N)nc4ccc(-c5ccccc5)nc43)cc2)C1: ≤ 5.70

Query :: What value of pIC50 has been reported for the following compound? C[C@@H]1C[C@H](N(C)Cc2ccc(-n3c(-c4cccnc4N)nc4ccc(-c5ccccc5)nc43)c(F)c2)C[C@H](C)[C@H]1C(=O)O
Result :: 5.70 to 6.30

Query :: What value of pIC50 has been reported for the following compound? Nc1ncccc1-c1nc2ccc(-c3ccccc3)nc2n1-c1ccc(CN2CCC(C(=O)O)CC2)c(F)c1
Result :: ≤ 5.70

Query :: What value of pIC50 has been reported for the following compound? CC(c1ccc(-n2c(-c3cccnc3N)nc3ccc(-c4ccccc4)nc32)cc1)N1CCC(C(=O)O)CC1 (stereo not shown)
Result :: ≤ 5.70

* * *

Below is a list of entries, each paired with its recorded IC50 value.
Molecular target: human recombinant kinase full-length wildtype AKT1 (Homo sapiens)
Construct: Purified human recombinant kinase full-length wildtype AKT1 was expressed in insect cells
Test: AKT1 kinase assay (wildtype, TR-FRET, Lance)
Details: 0.6 nM wildtype AKT1, 50 nM Ulight-CREBtide, either 50 μM ATP or 2 mM ATP, 60 min at RT

Sample answers from the record:
Nc1ncccc1-c1nc2ccc(-c3ccccc3)nc2n1-c1ccc([C@H]2CCN(C[C@H]3CC[C@H](C(=O)O)CC3)C2)cc1 (single isomer, unassigned): < 20 µM
CN(Cc1ccc(-n2c(-c3cccnc3N)nc3ccc(-c4ccccc4)nc32)cc1)[C@@H]1CC[C@@H](C(=O)O)C1 (stereo in doubt) [Compound I-171]: < 20 µM

Next molecule, please.
Query :: Enter reported IC50 observed with human recombinant kinase full-length wildtype AKT1 (Homo sapiens) for Nc1ncccc1-c1nc2ccc(-c3ccccc3)nc2n1-c1ccc(C2CN(C[C@@H]3CC[C@H](C(=O)O)C3)C2)cc1
Result :: < 20 µM

* * *

Below is a list of entries, each paired with its recorded pIC50 value.
Biological target: human recombinant kinase full-length AKT1 E17K (Homo sapiens, UniProt P31749, E17K)
Construct: Purified human recombinant kinase full-length AKT1 E17K was expressed in insect cells
Experiment: AKT1 E17K kinase assay (TR-FRET, Lance)
Details: 0.6 nM AKT1 E17K, 50 nM Ulight-CREBtide, either 50 μM ATP or 2 mM ATP, 60 min at RT
pIC50: −log10 of the molar value.

Query :: What value of pIC50 has been reported for the following molecule? CC(C)(N[C@@H]1CC[C@@H](C(=O)O)C1)c1ccc(-n2c(-c3cccnc3N)nc3ccc(-c4ccccc4)nc32)cc1
Result :: ≤ 5.70

Query :: What value of pIC50 has been reported for the following molecule? Cc1nc(-n2c(-c3cccnc3N)nc3ccc(-c4ccccn4)cc32)ccc1NC(=O)[C@H]1CC[C@H](C(=O)O)CC1
Result :: ≤ 5.70

Query :: What value of pIC50 has been reported for the following molecule? CNS(=O)(=O)C1CCC(CN2CC(c3ccc(-n4c(-c5cccnc5N)nc5ccc(-c6ccccc6)nc54)cc3)C2)CC1 (stereo not shown)
Result :: 5.70 to 6.30

Query :: What value of pIC50 has been reported for the following molecule? CN(Cc1ccc(-n2c(-c3cccnc3N)nc3ccc(-c4ccccc4)nc32)cc1)[C@H]1CC[C@H](CC(=O)O)CC1
Result :: > 6.30

Query :: What value of pIC50 has been reported for the following molecule? Cc1cc(C2CN(C[C@H]3CC[C@@H](C(=O)O)CC3)C2)ccc1-n1c(-c2cccnc2N)nc2ccc(-c3ccccc3)nc21
Result :: 5.70 to 6.30

Query :: What value of pIC50 has been reported for the following molecule? Nc1ncccc1-c1nc2ccc(-c3ccccc3)nc2n1-c1ccc(NC(=O)N2CCC(C(=O)O)CC2)cc1
Result :: > 6.30

Query :: What value of pIC50 has been reported for the following molecule? CC(C)(C(=O)O)[C@H]1CCN(Cc2ccc(-n3c(-c4cccnc4N)nc4ccc(-c5ccccc5)nc43)cc2)C1 (stereo in doubt)
Result :: 5.70 to 6.30

Query :: What value of pIC50 has been reported for the following molecule? CCN(Cc1ccc(-n2c(-c3cccnc3N)nc3ccc(-c4ccccc4)nc32)c(F)c1)[C@H]1CC[C@@H](C(=O)O)CC1
Result :: ≤ 5.70

Query :: What value of pIC50 has been reported for the following molecule? Nc1ncccc1-c1nc2ccc(-c3ccccc3)nc2n1-c1ccc(C2CCN(CC3CCC(C(=O)O)CC3)CC2)cc1 (stereo not shown)
Result :: 5.70 to 6.30

Query :: What value of pIC50 has been reported for the following molecule? CC(c1ccc(-n2c(-c3cccnc3N)nc3ccc(-c4ccccc4)nc32)cc1)N1CCCC(C(=O)O)C1 (stereo not shown)
Result :: ≤ 5.70

Query :: What value of pIC50 has been reported for the following molecule? CN(Cc1ccc(-n2c(-c3cccnc3N)nc3ccc(-c4ccccc4)nc32)c(F)c1)C12CCC(C(=O)O)(CC1)CC2
Result :: > 6.30

Query :: What value of pIC50 has been reported for the following molecule? Nc1ncccc1-c1nc2ccc(-c3ccccc3)nc2n1-c1ccc(NC(=O)C2CCCC(C(=O)O)C2)cc1 (stereo not shown)
Result :: > 6.30

Query :: What value of pIC50 has been reported for the following molecule? Nc1ncccc1-c1nc2ccc(-c3ccccc3)nc2n1-c1ccc(NC(=O)C2CC3C(C2)C3C(=O)O)nc1 (stereo not shown)
Result :: > 6.30
